- target_desc: Cyclin-dependent kinases regulatory subunit 1/S-phase kinase-associated protein 2 (Homo sapiens, UniProt P61024+Q13309)
- test_description: Inhibition of Cks1-Skp2 (unknown origin) interaction assessed as increase in p27-GFP level by western blot analysis
- Format: protein assay
- Sequence (P61024 2-79 limits assumed): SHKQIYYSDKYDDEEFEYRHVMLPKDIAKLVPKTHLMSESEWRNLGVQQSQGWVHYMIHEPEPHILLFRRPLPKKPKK
- Sequence (Q13309 whole entry partner): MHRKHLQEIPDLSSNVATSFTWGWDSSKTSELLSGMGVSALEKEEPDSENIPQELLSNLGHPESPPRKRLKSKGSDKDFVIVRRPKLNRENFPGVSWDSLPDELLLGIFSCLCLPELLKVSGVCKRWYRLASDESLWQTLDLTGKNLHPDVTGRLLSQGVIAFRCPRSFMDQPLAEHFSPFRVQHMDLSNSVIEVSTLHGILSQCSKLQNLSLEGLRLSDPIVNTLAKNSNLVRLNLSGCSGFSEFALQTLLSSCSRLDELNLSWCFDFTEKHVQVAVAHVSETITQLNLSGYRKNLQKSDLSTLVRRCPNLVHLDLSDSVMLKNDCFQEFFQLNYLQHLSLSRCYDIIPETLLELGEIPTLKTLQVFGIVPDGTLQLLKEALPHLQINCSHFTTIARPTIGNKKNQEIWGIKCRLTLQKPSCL
The source made the active and inactive calls. The calls are words filed in the database; no cut-off is given here.
Pick from yes (1) (active), no (0) (inactive) when you respond.

compound_structure=Cc1ccc(S(=O)(=O)Nc2ccc(N3CCOCC3)c3cccnc23)cc1 assigned_label="no (0)"
compound_structure=COc1ccc(Oc2cc(NS(=O)(=O)c3ccc(C)cc3)c3ncccc3c2)cc1 assigned_label="no (0)"
compound_structure=O=S(=O)(Nc1ccc(-c2ccccc2)c2cccnc12)c1cccc(C(F)(F)F)c1 assigned_label="yes (1)"

Query compound follows.
Outcome? CS(=O)(=O)Nc1ccc(-c2ccccc2)c2cccnc12
yes (1)

====

- target_desc: Cyclin-dependent kinases regulatory subunit 1/S-phase kinase-associated protein 2 (Homo sapiens, UniProt P61024+Q13309)
- test_description: Inhibition of Cks1-Skp2 (unknown origin) interaction after 30 mins by ELISA
- Assay type: protein assay
- measurement_conditions: read-out: IC50
- Sequence (P61024 whole entry): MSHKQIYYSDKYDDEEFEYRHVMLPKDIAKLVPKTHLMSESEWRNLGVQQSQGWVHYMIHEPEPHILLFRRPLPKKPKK
- Sequence (Q13309 whole entry): as the sequence (Q13309 whole entry partner) above
Below, each entry is listed alongside its reported pIC50.
pIC50 (log units): -log10 of the concentration in mol/L.

For the molecule COc1ccc(S(=O)(=O)Nc2ccc(-c3ccncc3)c3cccnc23)cc1 , report pIC50.
5.61

For the molecule COc1ccc(S(=O)(=O)Nc2ccc(-c3cccnc3)c3cccnc23)cc1 , report pIC50.
6.24

For the molecule Cc1ccc(S(=O)(=O)Nc2cccc3cccnc23)cc1 , report pIC50.
5.66

====

- target_desc: Cyclin-dependent kinases regulatory subunit 1/S-phase kinase-associated protein 2 (Homo sapiens, UniProt P61024+Q13309)
- test_description: Inhibition of Cks1-Skp2 (unknown origin) interaction assessed as increase in p27-GFP level by western blot analysis
- Assay type: protein assay
Calls of active or inactive are those of the source. The rule behind the calls is not given here.
Pick from class 1 for active, class 0 for inactive when you respond.

Take a look at these entries with their results.
compound_structure=Cc1ccc(S(=O)(=O)Nc2ccc(-c3ccsc3)c3cccnc23)cc1 assigned_label="class 1"
compound_structure=O=S(=O)(Nc1ccc(-c2cccnc2)c2cccnc12)c1cccnc1 assigned_label="class 1"
compound_structure=CS(=O)(=O)Nc1ccc(-c2ccncc2)c2cccnc12 assigned_label="class 0"
compound_structure=COc1ccc(S(=O)(=O)Nc2ccc(-c3ccccc3)c3cccnc23)cc1 assigned_label="class 1"
compound_structure=Cc1ccc(S(=O)(=O)Nc2ccc(N3CCN(C)CC3)c3cccnc23)cc1 assigned_label="class 0"
compound_structure=Cc1ccc(S(=O)(=O)Nc2cc(Oc3cc(F)cc(F)c3)cc3cccnc23)cc1 assigned_label="class 1"
compound_structure=Cc1ccc(S(=O)(=O)Nc2cccc3cccnc23)cc1 assigned_label="class 1"
compound_structure=Cc1ccc(S(=O)(=O)Nc2ccc(N3CCC(Cc4ccccc4)CC3)c3cccnc23)cc1 assigned_label="class 0"

Outcome? O=S(=O)(Nc1ccc(-c2cccnc2)c2cccnc12)c1cccc(C(F)(F)F)c1
class 1

Outcome? O=S(=O)(Nc1ccc(-c2ccccc2)c2cccnc12)C1CC1
class 0

====

- target_desc: Cyclin-dependent kinases regulatory subunit 1/S-phase kinase-associated protein 2 (Homo sapiens, UniProt P61024+Q13309)
- test_description: Inhibition of Cks1-Skp2 (unknown origin) interaction assessed as increase in p27-GFP level by ELISA
- Format: protein assay
The source made the active and inactive calls. No cut-off for these calls is given here.
endpoint_name: Activity

compound_structure=Cc1ccc(S(=O)(=O)Nc2ccc(-c3ccccc3)c3cccnc23)cc1 observed_value=Active
compound_structure=O=S(=O)(Nc1ccc(-c2cccnc2)c2cccnc12)c1cccnc1 observed_value=Active
compound_structure=Cc1ccc(S(=O)(=O)Nc2ccc(-c3ccsc3)c3cccnc23)cc1 observed_value=Active
compound_structure=Cc1ccc(S(=O)(=O)Nc2ccc(-c3cccnc3)c3cccnc23)cc1 observed_value=Active

For the compound O=S(=O)(Nc1ccc(-c2ccccc2)c2cccnc12)c1cccc(C(F)(F)F)c1 , report Activity.
Active
